molecules and their reported GI50
# Tested on: OVCAR-8
# Measurement Notes: NCI tumour cell line growth inhibition, 48 h
Activity calls are given as the source filed them. Cut-off read from the data, not from the text of the source: active = GI50 up to about 1.1 µM and inactive = higher.

The reported GI50 of the molecule c1ccc([P+](Cc2ccccc2C[P+](c2ccccc2)(c2ccccc2)c2ccccc2)(c2ccccc2)c2ccccc2)cc1 was > 100 µM (inactive)

---

# Tested on: HCC 2998
# Measurement Notes: NCI tumour cell line growth inhibition, 48 h
The source made the active and inactive calls. No stated cut-off is given here; in the data, active = GI50 up to about 1.1 µM and inactive = higher.
Please reply with one of these outcomes: active, inactive

CSc1cnn(CCC#N)c(=O)n1	inactive

query: Please indicate how the test categorized COc1cc2ncnc(Nc3cccc(Cl)c3)c2cc1OC .
result: inactive

query: Please indicate how the test categorized COC(=O)c1ccc(/N=N/N(C)COc2ccc(C#N)cc2)cc1 .
result: inactive

query: Please indicate how the test categorized CN(C)CCC[N+]1=Nc2cccc3cccc(c23)N1 .
result: inactive

query: Please indicate how the test categorized C=CCCC1(CC(Sc2ccccc2)P(=O)(c2ccccc2)c2ccccc2)OCCO1 (configuration not stated) .
result: inactive

query: Please indicate how the test categorized O=C1C=C(O)C(=Cc2c(O)cc(O)cc2O)C(O)=C1 .
result: inactive

query: Please indicate how the test categorized COc1cc2c(c(OC)c1OC)-c1ccc(SC)c(=O)cc1[C@@H](NCc1ccc(F)cc1)CC2 .
result: active

query: Please indicate how the test categorized Nc1ccn(CCO)c(=O)n1 .
result: inactive

query: Please indicate how the test categorized Nc1ncnc2c1cnn2Cc1ccc(Cl)cc1 .
result: inactive
